src = ChEMBL document CHEMBL1201862

Test system: NCI/ADR-RES
assay.name: NCI tumour cell line growth inhibition, 48 h
The source made the active and inactive calls. Cut-off read from the data, not from the text of the source: active = GI50 up to about 1.1 µM and inactive = higher.
measurement.label: GI50

Prompt: Determine its reported GI50: `C/C(Nc1ccc(Cl)cc1Cl)=C1/CCOC1=O`
Response: 77.6 µM (inactive)

Prompt: Determine its reported GI50: `Cc1cc2cc3c(C)cc(=O)oc3c(C)c2o1`
Response: > 100 µM (inactive)

Prompt: Determine its reported GI50: COc1ccc(C(=CCC(C)C2CCC3[C@@H]4C(OC(C)=O)CC5CC(OC(C)=O)CC[C@]5(C)C4CC(OC(C)=O)[C@]23C)c2ccc(OC)cc2)cc1 (some centres undefined)
Response: 80.7 µM (inactive)

Prompt: Determine its reported GI50: COC(=O)C(C/C=C(\C)c1ccc(Cl)cc1)C(C)=O (centres undefined)
Response: 23.7 µM (inactive)

Prompt: Determine its reported GI50: `COc1ccc(C(=O)/C=C/c2ccc(OCC(=O)N3CCN(c4ccccc4)CC3)cc2)cc1`
Response: 43.2 µM (inactive)

Prompt: Determine its reported GI50: `CCOC(=O)Nc1cc2ccccc2c(/N=N/c2ccccc2)c1O`
Response: > 100 µM (inactive)

Prompt: Determine its reported GI50: `N#CC1(C#N)C(C#N)(C#N)C1(C#N)C(N)=O`
Response: > 100 µM (inactive)

Prompt: Determine its reported GI50: C[C@H](CC[C@@H](O)C(C)(C)O)[C@H]1CC[C@@]2(C)[C@@H]3CC=C4[C@@H](CC[C@H](OC5OC(CO)C(O)C(O)C5O)C4(C)C)[C@]3(C)C(=O)C[C@]12C (some centres undefined)
Response: > 100 µM (inactive)

Prompt: Determine its reported GI50: Fc1cc2nc3n(c2cc1F)C(c1c(Cl)cccc1Cl)SC3 (centres undefined)
Response: 16.1 µM (inactive)
